target: RQCD1 Cell differentiation protein RCD1 homolog (Homo sapiens); construct: isoTOP-ABPP experiments performed in cell lysates (in vitro); endogenous in cells; host or cells: soluble proteome of human cancer cell lines (MDA-MB-231; Ramos and Jurkat also prepared); assay: competitive isoTOP-ABPP; assay type: binding; conditions: 50 uM, in vitro, sol, 231
Sequence (Q92600 whole entry): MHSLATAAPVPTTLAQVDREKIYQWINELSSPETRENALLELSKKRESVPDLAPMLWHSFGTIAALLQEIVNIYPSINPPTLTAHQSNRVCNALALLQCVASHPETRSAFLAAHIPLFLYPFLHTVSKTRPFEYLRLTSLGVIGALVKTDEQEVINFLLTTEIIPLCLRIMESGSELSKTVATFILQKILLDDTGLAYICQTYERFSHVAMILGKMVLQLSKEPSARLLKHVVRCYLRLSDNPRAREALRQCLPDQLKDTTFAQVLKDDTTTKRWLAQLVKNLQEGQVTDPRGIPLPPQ
Lab note: cut-off is 0.9. Strictly less in isoTOP-ABPP ratio (R) at liganded lysine Q92600_K230 is condition met. Exactly 0.9 or more is condition not met.

# compound, tested.on, classification
measured = [
    ("O=C(CCc1coc2cc(F)ccc2c1=O)Oc1ccc([N+](=O)[O-])cc1[N+](=O)[O-]", "RQCD1 Cell differentiation protein RCD1 homolog (Homo sapiens)", "condition not met"),
    ("O=C(Oc1ccc([N+](=O)[O-])cc1[N+](=O)[O-])c1ccc(-c2ccccc2)cc1", "RQCD1 Cell differentiation protein RCD1 homolog (Homo sapiens)", "condition met"),
    ("O=C(Oc1ccc([N+](=O)[O-])cc1[N+](=O)[O-])c1ccc(Oc2ccccc2)cc1 [fragment 39, 2,4-Dinitrophenyl 4-phenoxybenzoate]", "RQCD1 Cell differentiation protein RCD1 homolog (Homo sapiens)", "condition met"),
    ("O=C(Oc1ccc([N+](=O)[O-])cc1[N+](=O)[O-])C(c1ccccc1)(c1ccccc1)c1ccccc1 [fragment 42, 2,4-Dinitrophenyl 2,2,2-triphenylacetate]", "RQCD1 Cell differentiation protein RCD1 homolog (Homo sapiens)", "condition met"),
    ("CC(C)(C)OC(=O)NCCCC(=O)Oc1ccc([N+](=O)[O-])cc1[N+](=O)[O-]", "RQCD1 Cell differentiation protein RCD1 homolog (Homo sapiens)", "condition not met"),
    ("CC(=O)Oc1ccc([N+](=O)[O-])cc1[N+](=O)[O-] [fragment 43, 2,4-Dinitrophenyl acetate]", "RQCD1 Cell differentiation protein RCD1 homolog (Homo sapiens)", "condition not met"),
]

----------
Consider the following compounds and their measured R value (DMSO/fragment) for probe 1 labeling readings.
biological target: SIN3A Paired amphipathic helix protein Sin3a (Homo sapiens, UniProt Q96ST3); construct: isoTOP-ABPP experiments performed in cell lysates (in vitro); endogenous in cells; host or cells: soluble proteome of human cancer cell lines (MDA-MB-231; Ramos and Jurkat also prepared); assay: competitive isoTOP-ABPP; assay type: binding; conditions: Q96ST3_K155; 50 uM, 231 sol, in vitro
Sequence (Q96ST3 whole entry, the tested form may be a part): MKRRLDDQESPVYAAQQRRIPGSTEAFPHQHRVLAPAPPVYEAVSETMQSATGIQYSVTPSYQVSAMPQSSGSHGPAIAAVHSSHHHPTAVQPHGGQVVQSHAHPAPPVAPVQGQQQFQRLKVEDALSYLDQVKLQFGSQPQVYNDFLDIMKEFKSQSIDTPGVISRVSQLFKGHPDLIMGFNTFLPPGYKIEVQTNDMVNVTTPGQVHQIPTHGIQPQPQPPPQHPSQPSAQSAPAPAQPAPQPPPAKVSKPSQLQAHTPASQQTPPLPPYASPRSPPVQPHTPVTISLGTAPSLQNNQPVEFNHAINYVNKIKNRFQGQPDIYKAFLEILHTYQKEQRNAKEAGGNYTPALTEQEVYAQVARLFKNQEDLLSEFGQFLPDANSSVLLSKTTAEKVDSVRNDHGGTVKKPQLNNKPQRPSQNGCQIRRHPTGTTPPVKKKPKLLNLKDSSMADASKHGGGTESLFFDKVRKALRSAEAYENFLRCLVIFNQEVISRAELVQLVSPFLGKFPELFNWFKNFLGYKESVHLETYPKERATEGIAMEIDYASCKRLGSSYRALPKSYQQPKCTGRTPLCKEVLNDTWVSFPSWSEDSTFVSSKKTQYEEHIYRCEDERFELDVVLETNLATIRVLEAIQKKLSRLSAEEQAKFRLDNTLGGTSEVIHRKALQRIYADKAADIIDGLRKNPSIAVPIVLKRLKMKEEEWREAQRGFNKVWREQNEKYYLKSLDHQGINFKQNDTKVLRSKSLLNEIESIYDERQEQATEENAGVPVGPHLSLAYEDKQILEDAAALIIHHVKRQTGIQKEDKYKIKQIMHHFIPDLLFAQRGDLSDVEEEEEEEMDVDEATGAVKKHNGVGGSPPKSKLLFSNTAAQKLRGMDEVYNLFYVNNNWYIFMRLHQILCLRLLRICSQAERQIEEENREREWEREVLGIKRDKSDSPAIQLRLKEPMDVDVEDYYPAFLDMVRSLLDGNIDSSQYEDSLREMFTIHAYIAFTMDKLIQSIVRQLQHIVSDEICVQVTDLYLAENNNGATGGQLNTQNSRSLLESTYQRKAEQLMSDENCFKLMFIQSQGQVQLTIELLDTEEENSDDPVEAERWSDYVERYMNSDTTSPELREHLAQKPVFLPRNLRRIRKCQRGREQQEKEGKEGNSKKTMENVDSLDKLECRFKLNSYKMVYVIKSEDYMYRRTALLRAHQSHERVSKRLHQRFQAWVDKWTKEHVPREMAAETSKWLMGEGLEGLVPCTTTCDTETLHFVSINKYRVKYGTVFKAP
test.readout: R value (DMSO/fragment) for probe 1 labeling

# compound, value
data = [
    ("Cn1cc(CC(=O)Oc2c(F)c(F)c(F)c(F)c2F)c2ccccc21", 3.9),
    ("O=C(CCc1cn(-c2ccccc2)nc1-c1ccccc1)Oc1c(F)c(F)c(F)c(F)c1F", 1.6),
    ("O=C(Oc1c(F)c(F)c(F)c(F)c1F)c1cc(C(F)(F)F)cc(C(F)(F)F)c1", 20.0),
    ("O=C(Oc1c(F)c(F)c(F)c(F)c1F)C(c1ccccc1)c1ccccc1 [fragment 20, Pentafluorophenyl 2,2-diphenylacetate]", 1.2),
    ("COc1cc(CCC(=O)Oc2c(F)c(F)c(F)c(F)c2F)cc(OC)c1OC", 4.1),
]

----------
Consider the following compounds and their measured isoTOP-ABPP reactivity ratio at lysine Q9NTK5_K248 readings.
target: OLA1 Obg-like ATPase 1 (Homo sapiens); construct: endogenous in cells; host or cells: MDA-MB-231 (soluble fraction of lysate); assay: competitive isoTOP-ABPP; format: binding; conditions: 50 uM, 231 sol, in vitro
test.readout: isoTOP-ABPP reactivity ratio at lysine Q9NTK5_K248

# compound, tested.on, value
measured = [
    ("O=C(Oc1c(F)c(F)c(F)c(F)c1F)C1CCN(C(=O)OCc2ccccc2)CC1", "OLA1 Obg-like ATPase 1 (Homo sapiens)", 1.1),
    ("O=C(CN1C(=O)c2ccccc2C1=O)Oc1c(F)c(F)c(F)c(F)c1F", "OLA1 Obg-like ATPase 1 (Homo sapiens)", 1.1),
    ("O=C(Oc1ccc([N+](=O)[O-])cc1[N+](=O)[O-])C(c1ccccc1)c1ccccc1 [fragment 30, 2,4-Dinitrophenyl 2,2-diphenylacetate]", "OLA1 Obg-like ATPase 1 (Homo sapiens)", 1.0),
    ("CCn1cc(C(=O)Oc2c(F)c(F)c(F)c(F)c2F)c(=O)c2ccc(C)nc21", "OLA1 Obg-like ATPase 1 (Homo sapiens)", 1.0),
    ("O=C(CCc1cn(-c2ccccc2)nc1-c1ccccc1)Oc1ccc([N+](=O)[O-])cc1[N+](=O)[O-]", "OLA1 Obg-like ATPase 1 (Homo sapiens)", 0.9),
    ("O=C(CCc1coc2cc(F)ccc2c1=O)Oc1c(F)c(F)c(F)c(F)c1F", "OLA1 Obg-like ATPase 1 (Homo sapiens)", 1.0),
    ("O=C(Oc1ccc([N+](=O)[O-])cc1[N+](=O)[O-])c1cc(C(F)(F)F)cc(C(F)(F)F)c1", "OLA1 Obg-like ATPase 1 (Homo sapiens)", 1.0),
]
